This collection of values is drawn from paper PMC7018972.

# target-desc: Fasciola hepatica TIM (FhTIM) (Fasciola hepatica, UniProt S4UI50)
# Sequence (S4UI50 entry or part of it): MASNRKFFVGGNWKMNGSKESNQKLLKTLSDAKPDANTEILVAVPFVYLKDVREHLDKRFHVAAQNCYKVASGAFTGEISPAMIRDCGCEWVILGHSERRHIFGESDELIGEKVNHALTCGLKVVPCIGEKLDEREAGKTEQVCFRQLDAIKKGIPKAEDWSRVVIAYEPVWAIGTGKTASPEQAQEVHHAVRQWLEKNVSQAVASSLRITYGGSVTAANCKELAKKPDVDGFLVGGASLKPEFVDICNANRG
# experiment-notes: Inhibition of recombinant FhTIM, coupled enzyme assay
# Format: biochemical
# experimental-conditions: Table 1S, screening of 340 compounds in FhTIM; table head prints no unit, µM per b8/b9; read-out: IC50
Task for the reader: assign each of the following molecules its reported IC50.

Q. // returns reported IC50 for input "O=C1C(=C2Nc3ccccc3C2=O)Nc2ccccc21"
A. > 100 µM

Q. // returns reported IC50 for input "C=CCn1c(C(=O)CNN2CCN(C/C=C/c3ccccc3)CC2)csc1=NN=C/C=C/c1ccco1"
A. > 100 µM

Q. // returns reported IC50 for input "O=C1C(=Cc2ccc([N+](=O)[O-])cc2)C(=O)N(Cc2ccccc2)S(=O)(=O)N1Cc1ccccc1"
A. < 25 µM

Q. // returns reported IC50 for input "O=[N+]([O-])c1ccc2c(c1)c(OCc1ccccc1)nn2CCCCCN1CCN(CC=Cc2ccccc2)CC1"
A. > 100 µM

---

# System: newly excysted juvenile (NEJ) F. hepatica
# experiment-notes: In vitro NEJ treatment
# Type: cell-based, Fasciola hepatica
# experimental-conditions: Fasciola hepatica; NEJ, incubation time 48 h
experimental-readout: IC50

Q. Recorded IC50 for CS(=O)(=O)c1nc2cc(Oc3cccc(Cl)c3Cl)c(Cl)cc2[nH]1 [Compound 1293, reference compound] with newly excysted juvenile (NEJ) F. hepatica, please?
A. 50 µM

---

# target-desc: Fasciola hepatica TIM (FhTIM) (Fasciola hepatica, UniProt S4UI50)
# experiment-notes: Inhibition of recombinant FhTIM, coupled enzyme assay
# Format: biochemical
# experimental-conditions: Table 1S, screening of 340 compounds in FhTIM; table head prints no unit, µM per b8/b9; read-out: IC50
experimental-readout: IC50

Q. // returns reported IC50 for input COc1ccc(CNCC(=O)O)cc1 [Compound 659]
A. > 100 µM

Q. // returns reported IC50 for input C=CCn1c(C(=O)O)csc1=NN=CC=Cc1cccs1 [Compound 1126]
A. > 100 µM

Q. // returns reported IC50 for input CC1(C)[N+]([O-])=c2ccc(C3OCCO3)cc2=[N+]1[O-] [Compound 105]
A. > 100 µM

Q. // returns reported IC50 for input O=C1/C(=C/C=C/c2ccco2)CCC/C1=C\C=C\c1ccco1 [Compound 1019]
A. 50 to 100 µM

Q. // returns reported IC50 for input O=C1C(=CC=Cc2ccco2)CCC1=CC=Cc1ccco1 [Compound 1223]
A. 50 to 100 µM

---

# target-desc: Fasciola hepatica TIM (FhTIM) (Fasciola hepatica, UniProt S4UI50)
# experiment-notes: Inhibition of recombinant FhTIM, coupled enzyme assay
# Assay type: biochemical
# experimental-conditions: Table 1S, screening of 340 compounds in FhTIM; table head prints no unit, µM per b8/b9; read-out: IC50
Task for the reader: assign each of the following compounds its reported IC50.

Q. Recorded IC50 for "O=C(/C=C/c1ccco1)N1CCN(C/C=C/c2ccccc2)CC1" with Fasciola hepatica TIM (FhTIM) (Fasciola hepatica, UniProt S4UI50), please?
A. > 100 µM

Q. Recorded IC50 for "Nc1nc(-c2ccccc2)cs1" with Fasciola hepatica TIM (FhTIM) (Fasciola hepatica, UniProt S4UI50), please?
A. > 100 µM

Q. Recorded IC50 for "COc1cc(/C=C/C(=O)CC(=O)/C=C/c2cc(OC)c3oc(=O)cc(C)c3c2)ccc1O" with Fasciola hepatica TIM (FhTIM) (Fasciola hepatica, UniProt S4UI50), please?
A. > 100 µM

Q. Recorded IC50 for "C=CCN1C(=O)CSC1=NN=Cc1ccc(Cl)cc1" with Fasciola hepatica TIM (FhTIM) (Fasciola hepatica, UniProt S4UI50), please?
A. > 100 µM

Q. Recorded IC50 for "NC(=S)NN=Cc1ccc([N+](=O)[O-])s1" with Fasciola hepatica TIM (FhTIM) (Fasciola hepatica, UniProt S4UI50), please?
A. > 100 µM

Q. Recorded IC50 for "C=CCn1c(C)csc1=NN=CC=Cc1cccs1" with Fasciola hepatica TIM (FhTIM) (Fasciola hepatica, UniProt S4UI50), please?
A. > 100 µM

Q. Recorded IC50 for "C=CCn1c(C(=O)NN2CCOCC2)csc1=NN=CC=Cc1ccco1" with Fasciola hepatica TIM (FhTIM) (Fasciola hepatica, UniProt S4UI50), please?
A. > 100 µM

Q. Recorded IC50 for "COc1ccc(NC(=O)CCl)cc1" with Fasciola hepatica TIM (FhTIM) (Fasciola hepatica, UniProt S4UI50), please?
A. > 100 µM

Q. Recorded IC50 for "N#CSCC(=O)c1ccccc1" with Fasciola hepatica TIM (FhTIM) (Fasciola hepatica, UniProt S4UI50), please?
A. > 100 µM

Q. Recorded IC50 for "CC1(C)[N+]([O-])=c2ccc(Cl)cc2=[N+]1[O-]" with Fasciola hepatica TIM (FhTIM) (Fasciola hepatica, UniProt S4UI50), please?
A. 50 to 100 µM

Q. Recorded IC50 for "CCN(CC)CCCNS(=O)(=O)NCCCN(CC)CC" with Fasciola hepatica TIM (FhTIM) (Fasciola hepatica, UniProt S4UI50), please?
A. > 100 µM

Q. Recorded IC50 for "O=[N+]([O-])c1ccc(C=NN=c2scc(-c3ccccc3)n2-c2ccccc2)s1" with Fasciola hepatica TIM (FhTIM) (Fasciola hepatica, UniProt S4UI50), please?
A. > 100 µM

Q. Recorded IC50 for "CN(CC=Cc1ccccc1)Cc1ccc2c(c1)=[N+]([O-])C(C)(C)[N+]=2[O-]" with Fasciola hepatica TIM (FhTIM) (Fasciola hepatica, UniProt S4UI50), please?
A. > 100 µM

Q. Recorded IC50 for "S=C(NCc1ccccc1)NCc1ccccc1" with Fasciola hepatica TIM (FhTIM) (Fasciola hepatica, UniProt S4UI50), please?
A. > 100 µM

Q. Recorded IC50 for "O=C1CC(=O)N(Cc2ccccc2)S(=O)(=O)N1Cc1ccccc1" with Fasciola hepatica TIM (FhTIM) (Fasciola hepatica, UniProt S4UI50), please?
A. > 100 µM

Q. Recorded IC50 for "C=CCNC(=S)NN=CC=Cc1ccc(C)o1" with Fasciola hepatica TIM (FhTIM) (Fasciola hepatica, UniProt S4UI50), please?
A. > 100 µM

Q. Recorded IC50 for "C=CCN1C(=O)CSC1=NN=CC=Cc1ccco1" with Fasciola hepatica TIM (FhTIM) (Fasciola hepatica, UniProt S4UI50), please?
A. > 100 µM

Q. Recorded IC50 for "O=c1c2cc([N+](=O)[O-])ccc2n2n1CCCCC2" with Fasciola hepatica TIM (FhTIM) (Fasciola hepatica, UniProt S4UI50), please?
A. > 100 µM

Q. Recorded IC50 for "O=C1C(=Cc2ccc([N+](=O)[O-])s2)C(=O)N(C2CCCCC2)S(=O)(=O)N1C1CCCCC1" with Fasciola hepatica TIM (FhTIM) (Fasciola hepatica, UniProt S4UI50), please?
A. > 100 µM

Q. Recorded IC50 for "[O-][n+]1onc2ccccc21" with Fasciola hepatica TIM (FhTIM) (Fasciola hepatica, UniProt S4UI50), please?
A. > 100 µM

Q. Recorded IC50 for "C=CCNC(=S)NN=Cc1ccc2c(c1)[n+]([O-])c(C(=O)Nc1ccccc1)c(C)[n+]2[O-]" with Fasciola hepatica TIM (FhTIM) (Fasciola hepatica, UniProt S4UI50), please?
A. > 100 µM

Q. Recorded IC50 for "Cc1nnc[n+]([O-])c1C=Cc1ccc([N+](=O)[O-])o1" with Fasciola hepatica TIM (FhTIM) (Fasciola hepatica, UniProt S4UI50), please?
A. > 100 µM

Q. Recorded IC50 for "C(=Cc1ccco1)C=NN=c1scc(-c2ccccc2)n1-c1ccccc1" with Fasciola hepatica TIM (FhTIM) (Fasciola hepatica, UniProt S4UI50), please?
A. > 100 µM

Q. Recorded IC50 for "Cc1c(CNc2cccc3ccccc23)no[n+]1[O-]" with Fasciola hepatica TIM (FhTIM) (Fasciola hepatica, UniProt S4UI50), please?
A. > 100 µM

Q. Recorded IC50 for "C=CCNC(=S)NN=Cc1ccc2ccccc2c1" with Fasciola hepatica TIM (FhTIM) (Fasciola hepatica, UniProt S4UI50), please?
A. > 100 µM

Q. Recorded IC50 for "N#CC(C#N)=CC=Cc1ccco1" with Fasciola hepatica TIM (FhTIM) (Fasciola hepatica, UniProt S4UI50), please?
A. > 100 µM

Q. Recorded IC50 for "Cc1c(C=Cc2ccc(N(C)C)cc2)[n+]([O-])cn[n+]1[O-]" with Fasciola hepatica TIM (FhTIM) (Fasciola hepatica, UniProt S4UI50), please?
A. > 100 µM

Q. Recorded IC50 for "ON=Cc1ccc(O)cc1" with Fasciola hepatica TIM (FhTIM) (Fasciola hepatica, UniProt S4UI50), please?
A. > 100 µM

Q. Recorded IC50 for "C=CCn1c(C)csc1=NN=CC=Cc1ccc([N+](=O)[O-])s1" with Fasciola hepatica TIM (FhTIM) (Fasciola hepatica, UniProt S4UI50), please?
A. > 100 µM

Q. Recorded IC50 for "O=[N+]([O-])c1ccc(C=CC=NNC(=S)Nc2ccccc2)o1" with Fasciola hepatica TIM (FhTIM) (Fasciola hepatica, UniProt S4UI50), please?
A. > 100 µM

Q. Recorded IC50 for "O=C(C=CC=Cc1cccs1)C=CC=Cc1cccs1" with Fasciola hepatica TIM (FhTIM) (Fasciola hepatica, UniProt S4UI50), please?
A. > 100 µM

Q. Recorded IC50 for O=C1CCCC2=C1C(c1ccc(C(=O)O)cc1)c1ccc3ccccc3c1N2 (stereo not shown) with Fasciola hepatica TIM (FhTIM) (Fasciola hepatica, UniProt S4UI50), please?
A. > 100 µM

Q. Recorded IC50 for "O=S(=O)(O)c1ccc(C=NN=c2scc(-c3csc(=NN=Cc4ccccc4)n3-c3ccccc3)n2-c2ccccc2)o1" with Fasciola hepatica TIM (FhTIM) (Fasciola hepatica, UniProt S4UI50), please?
A. > 100 µM

Q. Recorded IC50 for "O=C1CSC(=NN=C/C=C/C=C/c2cccs2)N1c1ccccc1" with Fasciola hepatica TIM (FhTIM) (Fasciola hepatica, UniProt S4UI50), please?
A. > 100 µM

Q. Recorded IC50 for "C=CCNC(=S)NN=Cc1ccc2c(c1)OCO2" with Fasciola hepatica TIM (FhTIM) (Fasciola hepatica, UniProt S4UI50), please?
A. > 100 µM

Q. Recorded IC50 for "O=C(NN=Cc1ccccc1O)c1ccccc1Cl" with Fasciola hepatica TIM (FhTIM) (Fasciola hepatica, UniProt S4UI50), please?
A. > 100 µM

Q. Recorded IC50 for C=CCN(C(C)=O)C1=NNC(c2cccs2)S1 (stereo not shown) with Fasciola hepatica TIM (FhTIM) (Fasciola hepatica, UniProt S4UI50), please?
A. > 100 µM

Q. Recorded IC50 for "NC(N)=N/N=C/c1ccc(O)cc1" with Fasciola hepatica TIM (FhTIM) (Fasciola hepatica, UniProt S4UI50), please?
A. 50 to 100 µM

Q. Recorded IC50 for "Cc1ncc([N+](=O)[O-])n1CCI" with Fasciola hepatica TIM (FhTIM) (Fasciola hepatica, UniProt S4UI50), please?
A. > 100 µM

Q. Recorded IC50 for "C=CCNC(=S)NN=Cc1ccc(SC)cc1" with Fasciola hepatica TIM (FhTIM) (Fasciola hepatica, UniProt S4UI50), please?
A. > 100 µM
